For each of the molecules below, state its Ki.
Target: Alpha-1B adrenergic receptor (Homo sapiens, UniProt P35368)
Sequence (P35368 whole entry): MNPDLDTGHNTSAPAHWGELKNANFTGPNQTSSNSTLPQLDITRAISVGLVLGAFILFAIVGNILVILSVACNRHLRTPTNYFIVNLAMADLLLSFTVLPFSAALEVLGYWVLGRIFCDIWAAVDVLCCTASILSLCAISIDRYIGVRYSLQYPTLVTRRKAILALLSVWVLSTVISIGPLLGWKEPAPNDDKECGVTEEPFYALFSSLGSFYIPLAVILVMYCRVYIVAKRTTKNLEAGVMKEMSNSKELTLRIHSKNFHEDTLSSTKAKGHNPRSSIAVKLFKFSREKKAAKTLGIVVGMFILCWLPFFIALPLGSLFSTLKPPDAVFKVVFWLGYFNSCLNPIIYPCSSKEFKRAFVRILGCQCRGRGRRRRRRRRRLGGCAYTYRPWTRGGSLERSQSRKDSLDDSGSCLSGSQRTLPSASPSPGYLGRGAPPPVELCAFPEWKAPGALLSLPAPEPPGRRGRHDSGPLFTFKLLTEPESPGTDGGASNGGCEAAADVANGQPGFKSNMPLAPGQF

Q) Find Ki for c1ccc2c(c1)CCCC2NC1=NCCCO1 (centres undefined) on Alpha-1B adrenergic receptor (Homo sapiens, UniProt P35368) and write it down.
A) 6.76 µM

Q) Write Ki of C1COC(N2CCOCC2)=N1 ; system used: Alpha-1B adrenergic receptor (Homo sapiens, UniProt P35368)
A) 1000 µM

Q) # lookup: Alpha-1B adrenergic receptor (Homo sapiens, UniProt P35368) Ki, key = c1ccc2c(c1)CCCC2NC1=NCCO1 (centres undefined)
A) 2.45 µM

Q) Determine reported Ki for C1CCCC(NC2=NCCO2)CC1 ; test system: Alpha-1B adrenergic receptor (Homo sapiens, UniProt P35368).
A) 28.2 µM
